Test system: A498 renal
test.details: NCI tumour cell line growth inhibition, 48 h; in the data active = GI50 below about 0.43 µM; inactive = the rest
// one of active, inactive, no free text

Task: # lookup: test call for Oc1ccc(CCl)c2cccnc12
Output: inactive

Task: # lookup: test call for COc1cc(NC(=O)c2ccc(C(F)(F)F)nc2Nc2ccc(Cl)cc2C)cc(OC)c1OC
Output: inactive

Task: # lookup: test call for Fc1ccc(-c2nnc3sc(-c4cc(Cl)cc(Cl)c4)nn23)cc1Cl
Output: inactive

Task: # lookup: test call for O=C(NC1CCC(Br)CC1)C1CCCC(S(=O)(=O)NC2CCCCC2)C1 (stereo unspecified)
Output: inactive

Task: # lookup: test call for FC(F)(F)CNc1nccc(-c2cnn3ncccc23)n1
Output: inactive
